Each recorded value in this set is attributed to PubChem BioAssay (NCI).

Tested on: ACHN renal
Assay: NCI-60 one-dose screen, 48 h (100 = growth as untreated, 0 = no growth, -100 = all killed)
Details: 10 µM unless noted
Compounds without any hit were thinned out: in the full panel of roughly 83,000, 20% have a hit.
Reported metric: growth (%)
Provide the reading as a plain figure in %.

Example compounds with recorded growth:
CC(C)(C)C(=O)OCOP(=O)(OCOC(=O)C(C)(C)C)C1CCCN(O)C1=O (stereo unspecified) = 8.69
COc1ccc(C2=N[C@@H](Cc3ccccc3)C(=O)Nc3ccsc32)cc1 = 55.7
O=[As](O)(O)c1ccccc1[As](=O)(O)O = 91.1
CC[C@H](C)[C@H](NC(=O)[C@H]1CCCCN1C)C(=O)N(C)[C@H](CCc1nc(C(=O)N[C@@H](Cc2ccccc2)C[C@H](C)C(=O)OC)cs1)C(C)C = 29.3
CCC1CN1CCCCN1CC1CC (stereo unspecified) = 100

[ask] Can you share its growth? I mean this compound: COC(=O)CCC1=C(C)c2cc3[n-]c(cc4nc(cc5[n-]c(cc1n2)c(CCC(=O)OC)c5C)C=C4C)cc3C.[Cd+2]
[reply] 67.9

[ask] Can you share its growth? I mean this compound: CC1=C(CN)C2=C(C)C3(CC3)[C@@](C)(O)C(=O)C2=C1
[reply] 97.3

[ask] Can you share its growth? I mean this compound: Fc1cccc(NCOOC2(OOCNc3cccc(F)c3)CCCCC2)c1
[reply] 95

----------
Tested on: HT29 colon
Assay: NCI-60 one-dose screen, 48 h (100 = growth as untreated, 0 = no growth, -100 = all killed)
Details: 10 µM unless noted
The panel holds about 83,000 compounds, 20% with a hit somewhere; the sample as a whole holds those more often.
Reported metric: growth (%)
Provide the reading as a plain figure in %.

Example compounds with recorded growth:
CC(C)=CCc1c(O)c(C(=O)CC(C)C)c(O)c2c(-c3ccccc3)cc(=O)oc12 = 66.5
COc1ccc(-n2c(C)nc3cc(OC)c(OC)cc3c2=O)cc1OC = 106
[Cl][Hg][n]1c(-c2ccco2)nc2ccccc21 = 104
C[N+]12CN3CN(CN(C3)C1)C2 = 99.3
O=C1C(N2CC2)=C(N2CC2)C(=O)C(N2CC2)=C1N1CC1 = 2.38

[ask] Can you share its growth? I mean this compound: N#C[Se]CCN1C(=O)c2ccccc2C1=O
[reply] 13.9

[ask] Can you share its growth? I mean this compound: COC(=O)[C@@H](C)C[C@H](Cc1ccccc1)NC(=O)c1csc([C@@H](C[C@H](C(C)C)N(C)C(=O)[C@@H](NC(=O)[C@H]2CCCCN2C)C(C(F)(F)F)C(F)(F)F)OC(C)=O)n1
[reply] 14.4

[ask] Can you share its growth? I mean this compound: CC[C@@H]1[C@@H](C)O[C@@](O)([C@@H](C)[C@H](O)[C@H](C)[C@H]2OC(=O)/C=C/C=C/[C@H](C)[C@@H]([C@@H](C)[C@@H](O)[C@H](C)[C@@]3(O)C[C@@H](O[C@H]4C[C@@H](O)[C@H](O)C(C)O4)[C@H](CC)[C@@H](C)O3)OC(=O)/C=C/C=C/[C@@H]2C)C[C@H]1O[C@@H]1C[C@@H](O)[C@H](O)C(C)O1 (stereo partly drawn)
[reply] -84

----------
System: A498 renal
Test: NCI-60 one-dose screen, 48 h
Conditions: 10 µM
This is part of a sample that, as a whole, favours compounds with a hit. Of some 83,000 tested, about 20% had one in any assay. The source made the active and inactive calls. The calls were made as follows: active = growth percent below 10; inactive = the rest.
Pick one and only one: y (active), n (inactive)

COc1cccc2c1c(C(=O)C(=O)Nc1ccn[nH]1)cn2Cc1ccc(F)cc1 = y
Fc1ccc2c(c1)c(-c1nc(-c3c[nH]c4ncccc34)cs1)cn2CCN1CCOCC1 = n
Clc1ccc(CSC(Cn2ccnc2)c2ccc(Cl)cc2Cl)cc1 (centres undefined) = n
CCOP(=O)(Nc1ccc2c(c1)/C(=N/NC(N)=S)c1ccccc1-2)OCC = n
O=Cc1cn(Cc2ccc(Cl)cc2)c2ccccc12 = y

[ask] Dear all, I need the recorded test outcome for Fc1c[c-]c(-c2ccccn2)c(F)c1.[CH3-].[Pt+2].c1ccc([PH+](c2ccccc2)c2ccccn2)cc1 , thank you.
[reply] y

[ask] Dear all, I need the recorded test outcome for CC[C@H](C)[C@H](NC(=O)C12C3C4C1C1C2C3C41NC(C)=O)C(=O)N(C)[C@H](C[C@@H](OC(C)=O)c1nc(C(=O)N[C@@H](Cc2ccccc2)C[C@H](C)C(=O)OC)cs1)C(C)C (some centres undefined) , thank you.
[reply] y

[ask] Dear all, I need the recorded test outcome for CC1(C)C(C(=O)c2cn(CCCCF)c3ccccc23)C1(C)C , thank you.
[reply] n

[ask] Dear all, I need the recorded test outcome for Fc1ccc(N2COOC3(OOC2)C2CC4CC(C2)CC3C4)cc1 , thank you.
[reply] n

[ask] Dear all, I need the recorded test outcome for CC(CO)NC1CCCCC1 (centres undefined) , thank you.
[reply] n

[ask] Dear all, I need the recorded test outcome for O=C(CC1(O)C(=O)N(Cc2ccccc2)c2ccc(F)cc21)c1ccc(C(=O)NCC2CCC3(CC2)OOC2(CCCCC2)OO3)cc1 (centres undefined) , thank you.
[reply] y

[ask] Dear all, I need the recorded test outcome for O=C([O][Hg][CH2]C1COCC([CH2][Hg][O]C(=O)c2ccccc2)O1)c1ccccc1 (centres undefined) , thank you.
[reply] n

[ask] Dear all, I need the recorded test outcome for CN1CC(CNC(=O)OCc2ccccc2)CC2c3cccc4c3c(cn4C)CC21 (centres undefined) , thank you.
[reply] n

----------
# growth per entry
System: SK-MEL-2 melanoma
Assay: NCI-60 one-dose screen, 48 h (100 = growth as untreated, 0 = no growth, -100 = all killed)
Conditions: 10 µM unless noted
The panel holds about 83,000 compounds, 20% with a hit somewhere; the sample as a whole holds those more often.
Provide the reading as a plain figure in %.

Example molecules with recorded growth:
Nc1ccc2c(c1)Cc1cc(Br)ccc1-2 = 112
CC(=O)O[C@H]1CC[C@]2(C)[C@H]3CC[C@]4(C)[C@@H](OC(C)=O)CC[C@H]4[C@@H]3[C@@H](C)[C@]2(O)C1 = 99.1
COC(C(=O)[C@@H](O)[C@@H](C)O)[C@@H]1Cc2cc3cc(O[C@H]4C[C@@H](O[C@H]5C[C@@H](O)[C@H](O)C(C)O5)[C@H](O)C(C)O4)c(C)c(O)c3c(O)c2C(=O)[C@H]1O[C@H]1C[C@@H](O[C@H]2C[C@@H](O[C@H]3C[C@@H](O)[C@@H](O)C(C)O3)[C@@H](O)C(C)O2)[C@H](O)C(C)O1 (stereo not given in full) = -61.3
CCCCCCCCOC(=O)CCN1CC1 = 119
O=C1NC(=O)C(=Cc2cn(CCCCCCn3c4ccccc4c(=O)c4ccccc43)c3ccccc23)C(=O)N1 = 94

[ask] Can you share its growth? I mean this molecule: Cn1cc(C=O)c2nccnc21
[reply] 123

[ask] Can you share its growth? I mean this molecule: Oc1c(O)c(Cl)c(Cl)c(Cl)c1Cl
[reply] 39.1

----------
Tested on: TK-10 renal
Assay: NCI-60 one-dose screen, 48 h (100 = growth as untreated, 0 = no growth, -100 = all killed)
Details: 10 µM unless noted
This is part of a sample that, as a whole, favours compounds with a hit. Of some 83,000 tested, about 20% had one in any assay.
Reported metric: growth (%)
Provide the reading as a plain figure in %.

Example compounds with recorded growth:
CCCC[C@H](NC(=O)[C@H]1CCCCN1C)C(=O)N(C)[C@H](C[C@@H](OC(C)=O)c1nc(C(=O)N[C@@H](Cc2ccccc2)C[C@H](C)C(=O)OCC)cs1)C(C)C = -7.07
Cc1ccc(S(=O)(=O)C(Cl)(Cl)Cl)cc1 = 89.5
CC(=O)O[C@H](C[C@H](C(C)C)N(C)C(=O)[C@@H](NC(=O)[C@H]1CCCCN1C)C(C)C)c1nc(C(=O)N[C@@H](Cc2ccccc2)C[C@H](C)C(=O)O)c(C)s1 = 36.9
CN1CC(CNC(=O)OCc2ccccc2)CC2c3cccc4c3c(cn4C)CC21 (configuration not stated) = 53.9

[ask] Can you share its growth? I mean this compound: O=C1C2C(C(=O)[N]1[Hg][c]1ccccc1)C1(Cl)C(Cl)=C(Cl)C2(Cl)C1(Cl)Cl (configuration not stated)
[reply] -95.9

[ask] Can you share its growth? I mean this compound: CC(C)CCC(=O)O[C@H]1CC[C@H]2[C@@H]3CCC4=CC(=O)CC[C@]4(C)[C@H]3CC[C@]12C
[reply] 100

[ask] Can you share its growth? I mean this compound: CC1=C(CN)C2=C(C)C3(CC3)[C@@](C)(O)C(=O)C2=C1
[reply] 102
